Below is a list of entries, each paired with its recorded IC50 value.
molecular target: human PD-1 (Jurkat-PD-1 cells) / PE-labeled human PD-L1-Ig (Homo sapiens); construct: expressed in transfected cells; host or cells: Jurkat cell line over-expressing human PD-1; assay: Jurkat-PD-1 Cell Binding High-Content Screening Assay (CBA); Jurkat hPD1-PDL1 assay; details: Jurkat cell line over-expressing human PD-1; PE-labeled PD-L1-Ig 20 nM final; compound incubated 2 hours at 37° C.; read-out: Jurkat HPD1-PDL1 IC50
Sequence (Q15116 25-288): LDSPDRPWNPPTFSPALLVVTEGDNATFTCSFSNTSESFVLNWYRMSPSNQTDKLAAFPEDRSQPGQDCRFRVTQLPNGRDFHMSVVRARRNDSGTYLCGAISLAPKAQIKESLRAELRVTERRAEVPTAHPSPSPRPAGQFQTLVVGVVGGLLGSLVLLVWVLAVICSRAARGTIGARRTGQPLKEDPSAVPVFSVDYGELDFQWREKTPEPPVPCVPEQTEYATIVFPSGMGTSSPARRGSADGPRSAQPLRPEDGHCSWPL
Starred links: 1 amine or outer side, 2 acyl side, 3 side chain; linkers in the order of their positions; H or OH if unused. Positions of bridges follow the written chain, without caps; N, C: chain ends. Non-standard residues stand in square brackets, D forms with d. Residues, ends and D or L forms follow the SMILES beside them. ξ: configuration not given here. Bip = N[C@@H](Cc1ccc(-c2ccccc2)cc1)C(=O)O; Phe(2-Cl) = N[C@@H](Cc1ccccc1Cl)C(=O)O; NMeF = CN[C@@H](Cc1ccccc1)C(=O)O; X2 = O=C([C@H]1COCCN1[*:1])[*:2]; ξW = NC(Cc1c[nH]c2ccccc12)C(=O)O; NMeA = CN[C@@H](C)C(=O)O; Orn = NCCC[C@H](N)C(=O)O; Sar = CNCC(=O)O
Write down the numeric answer in nM and omit the unit.

In the examples that follow, each entry is paired with its recorded IC50.
compound="CC(C)C[C@@H]1NC(=O)[C@H](Cc2c[nH]c3ccccc23)NC(=O)[C@H](CC(=O)O)NC(=O)[C@H](Cc2ccc(O)cc2)NC(=O)[C@H](CC(N)=O)NC(=O)CSC[C@@H](C(=O)NCC(N)=O)NC(=O)[C@H]([C@@H](C)O)NC(=O)[C@H](C(C)C)NC(=O)[C@H](CC(C)C)NC(=O)[C@H](CC(N)=O)NC(=O)[C@H]2CCCN2C(=O)[C@H](CCCN)NC(=O)[C@H](C(C)C)NC(=O)[C@H](Cc2ccc(-c3ccccc3)cc2)NC1=O [Example 1424] ({CH2CO}-NYDWL[Bip]V[Orn][dP]NLVTCG-NH2; thioether N-14)" target_of_assay="human PD-1 (Jurkat-PD-1 cells) / PE-labeled human PD-L1-Ig (Homo sapiens)" observation_type=IC50 number=660
compound="CC(C)C[C@@H]1NC(=O)CSC[C@@H](C(=O)NCC(N)=O)NC(=O)[C@H](CO)NC(=O)[C@H](C(C)C)NC(=O)[C@H](CC(C)C)NC(=O)[C@H](CCCNC(=N)N)NC(=O)[C@H](Cc2ccccc2)N(C)C(=O)[C@H](C)N(C)C(=O)[C@H](CCCNC(=N)N)NC(=O)[C@H](Cc2ccc(-c3ccccc3)cc2)NC(=O)[C@H](C(C)C)NC(=O)[C@H](Cc2c[nH]c3ccccc23)NC(=O)[C@H](CC(=O)O)NC(=O)[C@H](Cc2ccc(O)cc2)NC1=O [Example 1077] ({CH2CO}-LYDWV[Bip]R[NMeA][NMeF]RLVSCG-NH2; thioether N-14)" target_of_assay="human PD-1 (Jurkat-PD-1 cells) / PE-labeled human PD-L1-Ig (Homo sapiens)" observation_type=IC50 number=210
compound="CC(C)C[C@@H]1NC(=O)[C@H](Cc2c[nH]c3ccccc23)NC(=O)[C@H](CC(=O)O)NC(=O)[C@H](Cc2ccc(O)cc2)NC(=O)[C@H](Cc2ccccc2)NC(=O)CSC[C@@H](C(=O)N[C@@H](C)C(N)=O)NC(=O)[C@H](CO)NC(=O)[C@H](C(C)C)NC(=O)[C@H](CC(C)C)NC(=O)[C@H](CC(N)=O)NC(=O)[C@H]2COCCN2C(=O)[C@H](C)N(C)C(=O)[C@H](C(C)C)NC(=O)[C@H](Cc2ccc(-c3ccccc3)cc2)NC1=O [Example 1044] ({CH2CO}-FYDWL[Bip]V[NMeA][X2]NLVSCA-NH2; thioether N-14)" target_of_assay="human PD-1 (Jurkat-PD-1 cells) / PE-labeled human PD-L1-Ig (Homo sapiens)" observation_type=IC50 number=80
compound="CC(C)C[C@@H]1NC(=O)[C@H](Cc2ccccc2Cl)NC(=O)[C@H](CC(=O)O)NC(=O)[C@H](Cc2ccc(O)cc2)NC(=O)[C@H](Cc2ccccc2)NC(=O)CSC[C@@H](C(=O)N[C@@H](C)C(N)=O)NC(=O)[C@H](CO)NC(=O)[C@H](C(C)C)NC(=O)[C@H](CC(C)C)NC(=O)[C@H](CC(N)=O)NC(=O)CN(C)C(=O)[C@H](C)N(C)C(=O)[C@H](C(C)C)NC(=O)[C@H](Cc2ccc(-c3ccccc3)cc2)NC1=O [Example 1170] ({CH2CO}-FYD[Phe(2-Cl)]L[Bip]V[NMeA][Sar]NLVSCA-NH2; thioether N-14)" target_of_assay="human PD-1 (Jurkat-PD-1 cells) / PE-labeled human PD-L1-Ig (Homo sapiens)" observation_type=IC50 number=940

Read the next record carefully.
Request: Give the reported IC50 for this compound. CC(C)C[C@@H]1NC(=O)C(Cc2c[nH]c3ccccc23)NC(=O)[C@H](CC(=O)O)NC(=O)[C@H](Cc2ccc(O)cc2)NC(=O)[C@H](Cc2ccccc2)NC(=O)CSC[C@@H](C(=O)NCC(N)=O)NC(=O)[C@H](CO)NC(=O)[C@H](C(C)C)NC(=O)[C@H](CC(C)C)NC(=O)[C@H](CCCNC(=N)N)NC(=O)CN(C)C(=O)[C@H](C)N(C)C(=O)[C@H](CCCNC(=N)N)NC(=O)[C@H](Cc2ccc(-c3ccccc3)cc2)NC1=O (some centres unmarked) [Example 1231] ({CH2CO}-FYD[ξW]L[Bip]R[NMeA][Sar]RLVSCG-NH2; thioether N-14)
Response: 900
